Assay: Caco-2 transepithelial permeability assay
Format: in vitro ADME
Conditions: human; Caco-2, concentrations from 0.3 µM to 3 µM
readout_label: Papp

The compound COc1cc(/C=C/c2ccc(OCCCn3c4c(c5cc(Br)ccc53)CCCC4n3cccc3)cc2)cc(OC)c1 (stereo not shown) [RE-1] showed Papp equal to 15.8 to 20.9 ×10⁻⁶ cm/s

----------
# Papp at 3 µM annotations
Assay: Caco-2 transepithelial permeability assay
Assay type: in vitro ADME
Conditions: human; Caco-2, sample tested at 3 µM
Report only the number, with the unit ×10⁻⁶ cm/s understood.

* Oc1ccc(/C=C/c2cc(O)cc(O)c2)cc1 | 18.2

Moving on to the next compound.
The compound COc1cc(/C=C/c2ccc(OCCCn3c4c(c5cc(Br)ccc53)CCCC4n3cccc3)cc2)cc(OC)c1 (centres unmarked) showed Papp at 3 µM equal to 20.9

----------
Target or system VEGF165 protein (Homo sapiens): recorded Kd listed per item.

- COc1cc(/C=C/c2ccc(OCCCn3c4c(c5cc(Br)ccc53)CCCC4n3cccc3)cc2)cc(OC)c1 (centres unmarked): ~8 µM

The recorded Kd with VEGF165 protein (Homo sapiens) for Oc1ccc(/C=C/c2cc(O)cc(O)c2)cc1 was ~12 µM

----------
Test: Caco-2 transepithelial permeability assay
Type: in vitro ADME
Details: human; Caco-2, sample tested at 0.3 µM
readout_label: Papp at 0.3 µM (×10⁻⁶ cm/s)
Report only the number, with the unit ×10⁻⁶ cm/s understood.

* COc1cc(/C=C/c2ccc(OCCCn3c4c(c5cc(Br)ccc53)CCCC4n3cccc3)cc2)cc(OC)c1 (centres unmarked) | 15.8

The molecule Oc1ccc(/C=C/c2cc(O)cc(O)c2)cc1 showed Papp at 0.3 µM equal to 15.1
